Data credit: the Immune Epitope Database (IEDB)

Assayed Target: HLA-B*40:01
Protocol Notes: IEDB peptide-MHC binding, purified MHC/direct/fluorescence; filed as Kd, often an IC50 or EC50 that approximates it; bounds were set here for any values at or beyond the usual limits of such assays
Assay Conditions: source organism: Influenza A virus (A/Moscow/343/2003(H3N2))
Readout: Kd (nM)
Answer format: numeric, nM implied, no suffix.

Lookup: What does the record list as Kd for AEDMGNGCF ?
Found: 166

====

Assayed Target: HLA-A*26:01
Protocol Notes: IEDB peptide-MHC binding, purified MHC/competitive/fluorescence; filed as Kd, often an IC50 or EC50 that approximates it; bounds were set here for any values at or beyond the usual limits of such assays
Assay Conditions: source organism: Orthohantavirus andesense
Readout: Kd

Lookup: What does the record list as Kd for TRDHVNLVL ?
Found: ≥ 20 µM

====

Assayed Target: HLA-A*02:11
Protocol Notes: IEDB peptide-MHC binding, purified MHC/competitive/fluorescence; filed as Kd, often an IC50 or EC50 that approximates it; bounds were set here for any values at or beyond the usual limits of such assays
Assay Conditions: source organism: Encephalitozoon cuniculi GB-M1
Readout: Kd (nM)
Answer format: numeric, nM implied, no suffix.

Lookup: What does the record list as Kd for SMIFSVLDA ?
Found: 129

====

Assayed Target: HLA-A*29:02
Protocol Notes: IEDB peptide-MHC binding, purified MHC/competitive/radioactivity; filed as Kd, often an IC50 or EC50 that approximates it; bounds were set here for any values at or beyond the usual limits of such assays
Assay Conditions: source organism: Lassa virus GA391
Readout: pKd
Keep in mind that pKd stands for -log10 of concentration in molar terms.

Lookup: What does the record list as pKd for YCNYSRYWY ?
Found: 5.91

====

Assayed Target: HLA-B*07:02
Protocol Notes: IEDB peptide-MHC binding, purified MHC/competitive/fluorescence; filed as Kd, often an IC50 or EC50 that approximates it; bounds were set here for any values at or beyond the usual limits of such assays
Assay Conditions: source organism: Escherichia coli str. K-12 substr. MG1655
Readout: pKd
Keep in mind that pKd stands for -log10 of concentration in molar terms.

Lookup: What does the record list as pKd for APTADVAKI ?
Found: 6.06

====

Assayed Target: HLA-B*15:01
Protocol Notes: IEDB peptide-MHC binding, purified MHC/direct/fluorescence; filed as Kd, often an IC50 or EC50 that approximates it; bounds were set here for any values at or beyond the usual limits of such assays
Assay Conditions: source organism: Vibrio parahaemolyticus AQ3810
Readout: Kd

Lookup: What does the record list as Kd for EPFLVQFWI ?
Found: ≥ 20 µM

====

Assayed Target: HLA-A*02:06
Protocol Notes: IEDB peptide-MHC binding, purified MHC/competitive/fluorescence; filed as Kd, often an IC50 or EC50 that approximates it; bounds were set here for any values at or beyond the usual limits of such assays
Assay Conditions: source organism: Candida albicans SC5314
Readout: Kd

Lookup: What does the record list as Kd for RVYNNTARY ?
Found: ≥ 20 µM

====

Assayed Target: HLA-B*44:02
Protocol Notes: IEDB peptide-MHC binding, purified MHC/competitive/radioactivity; filed as Kd, often an IC50 or EC50 that approximates it; bounds were set here for any values at or beyond the usual limits of such assays
Assay Conditions: source organism: Mammarenavirus tacaribeense
Readout: Kd (nM)
Answer format: numeric, nM implied, no suffix.

Lookup: What does the record list as Kd for AEFKSRFFVM ?
Found: 192
